Source of measurements: patent US7807678B2

Target: MC5-R (Homo sapiens, UniProt P33032)
Sequence (P33032 whole entry): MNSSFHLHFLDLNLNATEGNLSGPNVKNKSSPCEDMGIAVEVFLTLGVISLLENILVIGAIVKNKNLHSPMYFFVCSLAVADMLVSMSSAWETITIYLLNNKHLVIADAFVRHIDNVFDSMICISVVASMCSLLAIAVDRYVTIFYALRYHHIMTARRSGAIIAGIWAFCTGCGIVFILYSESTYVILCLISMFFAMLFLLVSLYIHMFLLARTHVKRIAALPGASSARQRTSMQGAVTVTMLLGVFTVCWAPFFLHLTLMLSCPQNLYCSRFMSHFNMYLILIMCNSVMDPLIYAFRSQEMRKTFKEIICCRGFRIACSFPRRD
Test: Competitive inhibition binding assay, 125I-NDP-α-MSH, MC5-R
Parameters: expressed in transfected cells
Conditions: 1 μM compound; inhibition of 125I-NDP-α-MSH binding; mean of triplicates; results less than 0% reported as 0%
Please use Fulfilled whenever Inhibition at 1 μM MC5-R is not below 30%, and Not fulfilled whenever it is.

Q: Dear colleague, could you confirm whether NCCCC[C@H]1C(=O)N(CCc2ccc3ccccc3c2)CCN1C(=O)[C@@H](Cc1ccc(Cl)cc1Cl)NC(=O)[C@@H]1C[C@@H](OCc2ccccc2)CN1 has Inhibition at 1 μM MC5-R at or above 30%?
A: Fulfilled

Q: How about N[C@H](Cc1ccc(Cl)cc1Cl)C(=O)N1CCN(CCc2ccc3ccccc3c2)C(=O)[C@@H]1CCCNc1ncccn1 ?
A: Not fulfilled

* * *

Target: MC3-R (Homo sapiens, UniProt P41968)
Sequence (P41968 whole entry): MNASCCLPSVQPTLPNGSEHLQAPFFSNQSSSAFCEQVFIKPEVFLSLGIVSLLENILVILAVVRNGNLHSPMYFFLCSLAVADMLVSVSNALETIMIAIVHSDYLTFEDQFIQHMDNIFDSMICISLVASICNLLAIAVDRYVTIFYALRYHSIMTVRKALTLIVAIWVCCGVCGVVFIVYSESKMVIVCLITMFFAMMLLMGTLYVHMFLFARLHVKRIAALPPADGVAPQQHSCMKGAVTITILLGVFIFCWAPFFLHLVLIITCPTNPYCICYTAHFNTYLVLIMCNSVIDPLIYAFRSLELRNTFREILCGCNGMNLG
Test: Competitive inhibition binding assay, 125I-NDP-α-MSH, MC3-R
Set-up: expressed in transfected cells
Conditions: 1 μM compound; inhibition of 125I-NDP-α-MSH binding; mean of triplicates; results less than 0% reported as 0%
Please respond with reported Inhibition at 1 μM MC3-R for every item in the list.

Here are 3 molecules together with their reported answers.
NCCCCCCC(=O)N[C@@H](COCc1ccccc1)C(=O)N[C@H](Cc1ccc(Cl)cc1)C(=O)N1C2CC[C@H](COc3ccc4c(c3)CCCC4)N2C(=O)[C@@H]1CCCCN (stereo partly drawn) : 59%
N=C(N)NCCC[C@H]1C(=O)N(CCc2c[nH]c3ccccc23)CCN1C(=O)[C@H](N)Cc1ccc(Cl)cc1 : 28%
CCCCCCC(=O)N[C@@H](Cc1cnc[nH]1)C(=O)N[C@H](Cc1ccccc1)C(=O)N1C[C@H](OCc2ccccc2)C[C@H]1C(=O)NCCCN : 5%

Look at each molecule and report its Inhibition at 1 μM MC3-R.
1. N=C(N)NCC[C@H]1C(=O)N(CCc2ccc3ccccc3c2)CCN1C(=O)[C@H](N)Cc1ccc(Cl)cc1Cl
2. N[C@H](Cc1ccc(Cl)cc1Cl)C(=O)N1CCN(CCc2ccc3ccccc3c2)C(=O)[C@@H]1CCCNc1cc[nH]n1
3. NCCCNC(=O)C1CC(OCc2ccccc2)CN1C(=O)C(Cc1ccccc1)NC(=O)C1NCCc2ccccc21 (stereo not drawn) [Example 159]

A:
1. 13%
2. 8%
3. 14%

* * *

Target: MC5-R (Homo sapiens, UniProt P33032)
Test: Competitive inhibition binding assay, 125I-NDP-α-MSH, MC5-R
Set-up: expressed in transfected cells
Settings: 1 μM compound; inhibition of 125I-NDP-α-MSH binding; mean of triplicates; results less than 0% reported as 0%
readout.kind: Inhibition at 1 μM MC5-R
Answer by giving the amount and then stating its unit.

The cases that follow already have their Inhibition at 1 μM MC5-R on record.
NCCCNC(=O)[C@@H]1C[C@@H](OCc2ccccc2)CN1C(=O)[C@@H](Cc1ccccc1)NC(=O)[C@@H](N)Cc1ccc2ccccc2c1 : 1%
CNC(=O)NCCC[C@H]1C(=O)N(CCc2ccc3ccccc3c2)CCN1C(=O)[C@@H](Cc1ccc(Cl)cc1Cl)NC(=O)[C@@H](N)COCc1ccccc1 : 31%
CCCCCCC(=O)N[C@@H](Cc1cnc[nH]1)C(=O)N[C@H](Cc1ccccc1)C(=O)N1C[C@H](OCc2ccccc2)C[C@H]1C(=O)NCCCN : 7%
N=C(N)NCCC[C@H]1C(=O)N2C(CC[C@@H]2COc2ccc3ccccc3c2)N1C(=O)[C@@H](Cc1ccc(Cl)cc1Cl)NC(=O)[C@@H]1C[C@@H](OCc2ccccc2)CN1 (stereo partly drawn) : 100%
NCCCNC(=O)[C@@H]1C[C@@H](OCc2ccccc2)CN1C(=O)[C@@H](Cc1ccccc1)NC(=O)[C@@H](N)C1Cc2ccccc2C1 : 2%
NCCCC[C@H]1C(=O)N2C(CC[C@@H]2COc2ccc3ccccc3c2)N1C(=O)[C@@H](Cc1ccccc1Cl)NCc1ccccc1 (stereo partly drawn) : 14%
N=C(N)c1ccc(C[C@H]2C(=O)N(CCc3ccc4ccccc4c3)CCN2C(=O)[C@H](N)Cc2ccc(Cl)cc2Cl)cc1 : 21%
C[C@@H](OCc1ccccc1)[C@H](N)C(=O)N[C@H](Cc1ccc(Cl)cc1Cl)C(=O)N1CCN(CCc2ccc3ccccc3c2)C(=O)[C@@H]1CCCCN : 78%

For each of the molecules below, note its Inhibition at 1 μM MC5-R.
1. NCCCC[C@H]1C(=O)N2C(CC[C@@H]2COc2ccc3ccccc3c2)N1C(=O)[C@@H](Cc1ccccc1Cl)NC(=O)[C@@H]1CC[C@H](c2ccccc2)N1 (stereo partly drawn)
2. N=C(N)NCCC[C@H]1C(=O)N(CCc2c[nH]c3ccccc23)CCN1C(=O)[C@@H](Cc1ccccc1Cl)NC(=O)[C@@H](N)COCc1ccccc1

A:
13%
71%

Each of the following entries comes with a recorded value; kindly state Inhibition at 1 μM MC5-R for each.
1. NCCCC[C@H]1C(=O)N(CCOc2ccc3ccccc3c2)CCN1C(=O)[C@@H](Cc1ccc(Cl)cc1)NC(=O)[C@@H]1Cc2ccccc2CN1
2. CCCNC(=N)NCCCC1C(=O)N(CCc2ccc3ccccc3c2)CCN1C(=O)C(N)Cc1ccc(Cl)cc1Cl (stereo not drawn)

A:
["65%", "26%"]

* * *

Molecular target: MC5-R (Homo sapiens)
Assay: Competitive inhibition binding assay, 125I-NDP-α-MSH, MC5-R
Set-up: expressed in transfected cells
Experimental: The competitive inhibition binding assay was conducted using membranes prepared from hMC3-R, hMC4-R, hMC5-R, and B-16 mouse melanoma cells (containing MC1-R) using 0.4 nM ^125I-NDP-α-MSH (New England Nuclear, Boston, Mass., USA) in 50 mM HEPES buffer containing 1 mM MgCl2, 2 mM CaCl2, and 5 mM KCl, at pH 7.2. […]
readout.kind: inhibition at 1 µM (%)
Numbers only, in %.

Would you please look over these solved cases?
[2H]N[C@@H](Cc1ccccc1)C(=O)N1C[C@H](OCc2ccccc2)C[C@H]1C(=O)NCCCN : 0
[2H]N[C@@H](Cc1cnc[nH]1)C(=O)N[C@@H](Cc1ccccc1)C(=O)N1CC2C[C@H](Oc3ccc4ccccc4c3)CN2C(=O)[C@@H]1CCCCN (stereo partly shown) : 0
N=C(N)NCCCC1C(=O)N(CCc2c[nH]c3ccccc23)CCN1C(=O)C(Cc1ccc(Cl)cc1)NC(=O)C(COCc1ccccc1)NC(=O)CCCCCCN (stereo not shown) : 94

Okay, next one:
Q: I would be grateful if you could share the reported inhibition at 1 µM for N=C(N)NCCC[C@H]1C(=O)N(CCc2ccc3ccccc3c2)CCN1C(=O)COc1ccc(Cl)cc1Cl .
A: 20

* * *

Biological target: MC3-R (Homo sapiens, UniProt P41968)
Experiment: Competitive inhibition binding assay, 125I-NDP-α-MSH, MC3-R
Set-up: expressed in transfected cells
Conditions: 1 μM compound; inhibition of 125I-NDP-α-MSH binding; mean of triplicates; results less than 0% reported as 0%
For each entry below, report its Inhibition at 1 μM MC3-R value.
Numbers only, in %.

NCCCNC(=O)[C@@H]1C[C@@H](OCc2ccccc2)CN1C(=O)[C@@H](Cc1ccccc1)NC(=O)[C@H](Cc1cnc[nH]1)NC(=O)Cc1ccc2ccccc2c1 [Example 141] : 4

Your task in this section: give Inhibition at 1 μM MC3-R for each listed record.
1. NCCCC[C@H]1C(=O)N2C(CC[C@@H]2COc2ccc3ccccc3c2)N1C(=O)[C@@H](Cc1ccccc1Cl)NC(=O)[C@@H]1CC[C@H](c2ccccc2)N1 (stereo partly drawn) [Example 85]
2. CCCNC(=N)NCCCC1C(=O)N(CCc2ccc3ccccc3c2)CCN1C(=O)C(N)Cc1ccc(Cl)cc1Cl (stereo not drawn) [Example 74]

A:
[0, 34]

* * *

Assignment: determine reported Inhibition at 1 μM MC4-R for the given compounds.
Target: MC4-R (Homo sapiens, UniProt P32245)
Sequence (P32245 whole entry): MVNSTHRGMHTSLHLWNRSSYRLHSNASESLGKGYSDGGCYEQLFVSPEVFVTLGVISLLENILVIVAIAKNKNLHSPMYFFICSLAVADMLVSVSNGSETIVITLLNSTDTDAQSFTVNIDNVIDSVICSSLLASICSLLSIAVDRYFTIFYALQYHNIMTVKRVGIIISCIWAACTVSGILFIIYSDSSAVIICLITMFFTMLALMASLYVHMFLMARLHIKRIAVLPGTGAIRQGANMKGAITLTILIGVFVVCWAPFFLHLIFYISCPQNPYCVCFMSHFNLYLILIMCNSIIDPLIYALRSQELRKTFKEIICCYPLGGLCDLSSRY
Test: Competitive inhibition binding assay, 125I-NDP-α-MSH, MC4-R
Parameters: expressed in transfected cells
Conditions: 1 μM compound; inhibition of 125I-NDP-α-MSH binding; mean of triplicates; results less than 0% reported as 0%
Answer with the figure and its unit, nothing else.

NCCCC[C@H]1C(=O)N2C(CC[C@@H]2COc2ccc3ccccc3c2)N1C(=O)[C@@H](Cc1ccccc1Cl)NCc1ccccc1 (stereo partly drawn) [Example 102] : 16%
NCCCNC(=O)[C@@H]1C[C@@H](OCc2ccccc2)CN1C(=O)[C@@H](Cc1ccccc1)NC(=O)C1CCC(CN)CC1 (stereo partly drawn) [Example 168] : 10%

Next compound, Inhibition at 1 μM MC4-R to be filled in.
Q: Give its Inhibition at 1 μM MC4-R value. Item: CC(C)NC(=N)NCCCC1C(=O)N(CCc2ccc3ccccc3c2)CCN1C(=O)C(N)Cc1ccc(Cl)cc1Cl (stereo not drawn) [Example 75]
A: 85%
